Measured values drawn from paper PMC10950554 for this set.

measurementTarget: UniProt P63086
Sequence (P63086 2-358): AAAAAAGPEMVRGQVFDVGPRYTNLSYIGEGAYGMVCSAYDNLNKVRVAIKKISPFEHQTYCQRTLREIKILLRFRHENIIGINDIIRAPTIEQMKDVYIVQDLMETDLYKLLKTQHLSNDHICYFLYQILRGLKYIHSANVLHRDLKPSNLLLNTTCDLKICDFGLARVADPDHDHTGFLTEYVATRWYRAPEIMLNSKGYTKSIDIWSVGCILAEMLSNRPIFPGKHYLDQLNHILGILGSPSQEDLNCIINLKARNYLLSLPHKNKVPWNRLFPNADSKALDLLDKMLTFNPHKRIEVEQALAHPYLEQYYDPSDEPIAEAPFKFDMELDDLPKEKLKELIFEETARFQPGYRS
attributeMeasured: Ki

• CC1(C)C2CCC(CN=C(N)CSS(=O)(=O)O)C1C2 (stereo not shown) = 730 nM
